Recorded values, source the supplement of paper PMC11061612.

Would you kindly list combination Emax for each of these compounds?
Tested on: GCT (Other Solid Carcinomas)
measurement notes: combination Emax (second highest fraction inhibited in the dose matrix, 72 h); higher = more inhibition; extreme values may be limits of the assay
Give the value as a plain number.

Would you mind telling me what combination Emax value was observed for C[C@@H](c1ccc2nccn2c1)n1nnc2ncc(-c3cnn(C)c3)nc21 [Savolitinib] + Cc1c2c(nn1C)CSCc1cc(n(C)n1)CSc1cc(c3ccccc3c1)OCCCc1c(C(=O)O)n(C)c3c-2c(Cl)ccc13 [AZD5991] (first compound max 1 µM, 7x7, partner max 1 µM) ?
0.211

Entry Cn1cnc2c(F)c(Nc3ccc(Br)cc3Cl)c(C(=O)NOCCO)cc21 [Selumetinib] + C[C@@H]1COCCN1C2=NC(=NC(=C2)C3(CC3)[S@](=N)(=O)C)C4=C5C=CNC5=NC=C4 [AZD6738] (first compound max 10 µM, 7x7, partner max 10 µM) please
0.373

Entry CS(=O)(=O)CCNCc1ccc(-c2ccc3ncnc(Nc4ccc(OCc5cccc(F)c5)c(Cl)c4)c3c2)o1 [Lapatinib] + C[C@@H](Oc1cc(-c2cnn(C3CCNCC3)c2)cnc1N)c1c(Cl)ccc(F)c1Cl [Crizotinib] (first compound max 10 µM, 7x7, partner max 10 µM) please
0.903

Entry Cc1c2c(nn1C)CSCc1cc(n(C)n1)CSc1cc(c3ccccc3c1)OCCCc1c(C(=O)O)n(C)c3c-2c(Cl)ccc13 [AZD5991] + C[C@@H](Nc1cc(F)cc(F)c1)c1cc(C(=O)N(C)C)cc2c(=O)cc(N3CCOCC3)oc12 [AZD8186] (first compound max 1 µM, 7x7, partner max 3 µM) please
0.454

Entry Cc1cc2ncnn2cc1Nc1ncc2c(n1)n(C1CCOCC1)c(=O)n2C [AZD7648] + C[C@@H]1COCCN1C2=NC(=NC(=C2)C3(CC3)[S@](=N)(=O)C)C4=C5C=CNC5=NC=C4 [AZD6738] (first compound max 10 µM, 7x7, partner max 10 µM) please
0.245
